target: human TYK2 (JH2domain-pseudokinase) (Homo sapiens (Human), UniProt P29597); experiment: TYK2 JH2 Domain Binding Assay (KINOMEscan, DiscoveRx); settings: 11-point dilution, duplicate
Sequence (P29597 556-888): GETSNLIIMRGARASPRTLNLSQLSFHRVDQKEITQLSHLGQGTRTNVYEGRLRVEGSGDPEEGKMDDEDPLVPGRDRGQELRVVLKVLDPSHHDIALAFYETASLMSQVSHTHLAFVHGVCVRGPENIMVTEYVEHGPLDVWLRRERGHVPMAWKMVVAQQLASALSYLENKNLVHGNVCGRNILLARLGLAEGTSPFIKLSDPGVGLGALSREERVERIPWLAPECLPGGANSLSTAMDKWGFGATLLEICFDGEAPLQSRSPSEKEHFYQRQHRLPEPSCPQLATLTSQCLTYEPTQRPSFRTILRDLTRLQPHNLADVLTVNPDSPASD
Please provide measured Kd for the entries that follow.

Incoming: Observed Kd on human TYK2 (JH2domain-pseudokinase) (Homo sapiens (Human), UniProt P29597) for Cc1nc2c(Nc3ccc(-c4cc(C)c(C)o4)cc3S(C)(=O)=O)cc(NC(=O)C3CC3)nc2[nH]1 , please.
Outgoing: 0.1 to 0.5 nM

Incoming: Observed Kd on human TYK2 (JH2domain-pseudokinase) (Homo sapiens (Human), UniProt P29597) for CS(=O)(=O)c1cc([C@H]2CCCCO2)ccc1Nc1cc(NC(=O)[C@@H]2CC2(F)F)nc2[nH]c(C(F)F)nc12 , please.
Outgoing: 1 to 10 nM

Incoming: Observed Kd on human TYK2 (JH2domain-pseudokinase) (Homo sapiens (Human), UniProt P29597) for Cc1nc2c(Nc3ccc(-c4cn(C)cn4)cc3S(C)(=O)=O)cc(NC(=O)[C@@H]3C[C@@H]3F)nc2[nH]1 , please.
Outgoing: < 0.1 nM

Incoming: Observed Kd on human TYK2 (JH2domain-pseudokinase) (Homo sapiens (Human), UniProt P29597) for Cc1nc2c(Nc3ccc([C@@H]4CCC(C)(C)CO4)cc3S(C)(=O)=O)cc(NC(=O)C3CC3)nc2[nH]1 , please.
Outgoing: < 0.1 nM

Incoming: Observed Kd on human TYK2 (JH2domain-pseudokinase) (Homo sapiens (Human), UniProt P29597) for COc1c(Nc2cc(Nc3cnc(N4CC[C@@H](OC)C4)c(C#N)n3)nc3[nH]c(C(F)F)nc23)cccc1-c1nnn(C)n1 , please.
Outgoing: 1 to 10 nM

Incoming: Observed Kd on human TYK2 (JH2domain-pseudokinase) (Homo sapiens (Human), UniProt P29597) for COc1c(Nc2cc(NC(=O)C3CC3)nc3[nH]c(CO)nc23)cccc1-c1ncn(C)n1 , please.
Outgoing: 1 to 10 nM

Incoming: Observed Kd on human TYK2 (JH2domain-pseudokinase) (Homo sapiens (Human), UniProt P29597) for Cc1nc2c(Nc3ccc(-c4cncn4C)cc3S(C)(=O)=O)cc(NC(=O)C3CC3)nc2[nH]1 , please.
Outgoing: < 0.1 nM
